measured-on: Dihydroorotate dehydrogenase (quinone), mitochondrial (Plasmodium falciparum (isolate 3D7)) (UniProt Q08210)
Sequence (Q08210 whole entry, looked up): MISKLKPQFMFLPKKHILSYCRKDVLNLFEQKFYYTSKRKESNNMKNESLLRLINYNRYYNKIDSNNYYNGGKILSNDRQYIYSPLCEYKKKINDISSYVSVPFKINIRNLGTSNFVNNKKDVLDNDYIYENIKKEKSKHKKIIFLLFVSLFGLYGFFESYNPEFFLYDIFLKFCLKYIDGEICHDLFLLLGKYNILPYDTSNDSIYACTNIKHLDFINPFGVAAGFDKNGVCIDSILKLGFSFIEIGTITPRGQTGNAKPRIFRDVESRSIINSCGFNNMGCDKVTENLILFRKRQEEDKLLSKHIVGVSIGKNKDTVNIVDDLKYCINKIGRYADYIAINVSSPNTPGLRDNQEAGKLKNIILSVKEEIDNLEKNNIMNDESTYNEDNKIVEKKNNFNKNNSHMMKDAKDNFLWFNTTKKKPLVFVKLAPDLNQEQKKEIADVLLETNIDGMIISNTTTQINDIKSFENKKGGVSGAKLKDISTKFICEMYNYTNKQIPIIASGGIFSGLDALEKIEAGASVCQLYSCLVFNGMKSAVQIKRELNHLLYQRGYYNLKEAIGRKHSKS
test: inhibition of P. falciparum DHODH – biochemical, C-terminal His tag, absorbance 600 nm, primary screen (AID 1175);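 also: recombinant parasite enzyme with a five histidine tag at its C terminus; test concentration not given here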
condition-label: PfDHODH enzyme, DCIP absorbance 600 nm; higher = more signal, called active from +8 up or from −8 down
Classify on composite z-score using small value: < -0.7; mid value: ≥ -0.7 and < -0.2; large value: ≥ -0.2

Answered examples (3):
Lookup: Pick a category. Item: `O=C(NCc1ccccc1)[C@]1(Cc2ccccc2)N=C(c2ccc(OCCCO)cc2)O[C@@H]1c1ccccc1`
Found: large value

Lookup: Which composite z-score band matches `CCC[C@@H]1C[C@@]1(CCC)[C@@H](NC(=O)c1ccco1)c1ccc(Cl)cc1` ?
Found: large value

Lookup: Just checking, what class would you give `C=C[C@H](C)[C@H](OC(=O)Nc1ccc(SC)cc1)c1ccc(O)c2ccccc12` here?
Found: small value

Now take the following molecule into account.
Lookup: Exam item: assign N#Cc1ccc(NN2C(C(O)c3ccco3)C=CC3C(=O)N(c4ccccc4)C(=O)C32)cc1 (stereo unspecified) to the correct category.
Found: large value
